target: PI 3-kinase delta (Homo sapiens); assay: TR-FRET Adapta assay, assay F; conditions: read-out: Assay F PI3Kδ IC50
Sequence (O00329 whole entry): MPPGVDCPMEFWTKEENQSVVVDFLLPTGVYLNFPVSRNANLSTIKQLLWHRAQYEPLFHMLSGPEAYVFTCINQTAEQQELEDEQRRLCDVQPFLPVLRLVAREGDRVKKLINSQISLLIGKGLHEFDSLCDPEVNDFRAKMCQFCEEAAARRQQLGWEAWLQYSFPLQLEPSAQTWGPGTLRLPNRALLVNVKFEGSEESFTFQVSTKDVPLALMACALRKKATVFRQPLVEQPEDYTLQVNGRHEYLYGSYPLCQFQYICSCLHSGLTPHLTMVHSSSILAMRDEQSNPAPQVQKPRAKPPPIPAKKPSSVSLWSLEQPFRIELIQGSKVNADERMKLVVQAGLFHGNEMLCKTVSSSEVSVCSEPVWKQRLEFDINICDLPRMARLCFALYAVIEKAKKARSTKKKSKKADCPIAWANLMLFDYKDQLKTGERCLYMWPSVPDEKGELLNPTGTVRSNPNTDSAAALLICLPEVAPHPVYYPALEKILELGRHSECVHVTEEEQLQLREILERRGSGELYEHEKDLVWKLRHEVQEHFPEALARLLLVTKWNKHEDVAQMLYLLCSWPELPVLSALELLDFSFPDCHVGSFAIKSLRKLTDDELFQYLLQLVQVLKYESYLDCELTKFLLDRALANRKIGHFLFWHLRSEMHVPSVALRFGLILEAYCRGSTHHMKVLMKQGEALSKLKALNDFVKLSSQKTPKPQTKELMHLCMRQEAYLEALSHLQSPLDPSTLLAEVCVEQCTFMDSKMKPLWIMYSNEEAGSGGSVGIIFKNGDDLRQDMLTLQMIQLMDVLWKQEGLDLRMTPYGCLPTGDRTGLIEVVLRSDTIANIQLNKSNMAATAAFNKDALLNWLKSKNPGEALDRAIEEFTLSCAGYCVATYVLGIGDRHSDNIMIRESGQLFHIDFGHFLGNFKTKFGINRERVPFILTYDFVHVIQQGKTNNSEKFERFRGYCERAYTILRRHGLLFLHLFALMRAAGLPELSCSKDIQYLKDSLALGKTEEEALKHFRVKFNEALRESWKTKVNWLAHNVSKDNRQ
Sequence (P27986 461-568 partner): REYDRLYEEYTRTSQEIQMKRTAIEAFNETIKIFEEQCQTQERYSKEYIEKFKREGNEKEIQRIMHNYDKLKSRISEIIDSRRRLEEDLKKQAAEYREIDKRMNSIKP
RESULT TYPE: pIC50
Give bare numbers, as −log10 of the molar value.

[[record]]
molecule = "Cc1cncc(-c2nc(-c3cc(S(=O)(=O)NCCC(C)(C)O)ccc3C)cnc2N)c1"
target_system = "PI 3-kinase delta (Homo sapiens)"
result_type = "pIC50"
quantitative_result = 6.14

[[record]]
molecule = "Cc1cc(-c2nc(-c3cc(S(=O)(=O)NCC4CCCCO4)ccc3C)cnc2N)ccn1 (stereo not drawn)"
target_system = "PI 3-kinase delta (Homo sapiens)"
result_type = "pIC50"
quantitative_result = 5.70

[[record]]
molecule = "Cc1ccc(S(=O)(=O)NCCC(C)(C)O)cc1-c1cnc(N)c(-c2ccnn2C)n1"
target_system = "PI 3-kinase delta (Homo sapiens)"
result_type = "pIC50"
quantitative_result = 6.52

[[record]]
molecule = "Cc1ccc(S(=O)(=O)NCCC(C)(C)O)cc1-c1cnc(N)c(-c2cnn(C)c2)n1"
target_system = "PI 3-kinase delta (Homo sapiens)"
result_type = "pIC50"
quantitative_result = 6.72

[[record]]
molecule = "Cc1ccc(S(=O)(=O)NCCC(C)(C)O)cc1-c1cnc(N)c(-c2ccc(N3CCCCC3)nc2)n1"
target_system = "PI 3-kinase delta (Homo sapiens)"
result_type = "pIC50"
quantitative_result = 5.69

[[record]]
molecule = "Cc1ccc(S(=O)(=O)NCC2CN(C)CCO2)cc1-c1cnc(N)c(-c2cn(C)nc2C)n1 (stereo not drawn)"
target_system = "PI 3-kinase delta (Homo sapiens)"
result_type = "pIC50"
quantitative_result = 5.66

[[record]]
molecule = "Cc1cc(-c2nc(-c3cc(S(=O)(=O)N4CCC(N)CC4)ccc3C)cnc2N)ccn1"
target_system = "PI 3-kinase delta (Homo sapiens)"
result_type = "pIC50"
quantitative_result = 5.64

[[record]]
molecule = "Cc1ccc(S(=O)(=O)NCC(C)(C)O)cc1-c1cnc(N)c(-c2cnn(C)c2C)n1"
target_system = "PI 3-kinase delta (Homo sapiens)"
result_type = "pIC50"
quantitative_result = 6.35

[[record]]
molecule = "Cc1ccc(S(=O)(=O)NC[C@H]2COCCN2)cc1-c1cnc(N)c(-c2cn(C)nc2C)n1"
target_system = "PI 3-kinase delta (Homo sapiens)"
result_type = "pIC50"
quantitative_result = 6.16

[[record]]
molecule = "Cc1ccc(S(=O)(=O)NCCC(C)(C)O)cc1-c1cnc(N)c(-c2cnn(CC(F)(F)F)c2)n1"
target_system = "PI 3-kinase delta (Homo sapiens)"
result_type = "pIC50"
quantitative_result = 6.74


For each listed entry, give its pIC50.
1. Cc1nnc(-c2nc(-c3cc(S(=O)(=O)NCC(C)(C)O)ccc3C)cnc2N)o1
2. Cc1ccc(S(=O)(=O)NCCC(C)(C)O)cc1-c1cnc(N)c(-c2cccnc2)n1

Output line:
[5.70, 6.26]

----------
target: PI 3-kinase beta (Homo sapiens, UniProt P42338); test: Cellular assay I1, p-Akt (S473) in Rat-1 cells, Surefire format; assay type: cell-based; settings: non-asterisked data: version I1 (Surefire format), Rat-1 cells; read-out: Assay I PI3Kβ IC50
Sequence (P42338 whole entry): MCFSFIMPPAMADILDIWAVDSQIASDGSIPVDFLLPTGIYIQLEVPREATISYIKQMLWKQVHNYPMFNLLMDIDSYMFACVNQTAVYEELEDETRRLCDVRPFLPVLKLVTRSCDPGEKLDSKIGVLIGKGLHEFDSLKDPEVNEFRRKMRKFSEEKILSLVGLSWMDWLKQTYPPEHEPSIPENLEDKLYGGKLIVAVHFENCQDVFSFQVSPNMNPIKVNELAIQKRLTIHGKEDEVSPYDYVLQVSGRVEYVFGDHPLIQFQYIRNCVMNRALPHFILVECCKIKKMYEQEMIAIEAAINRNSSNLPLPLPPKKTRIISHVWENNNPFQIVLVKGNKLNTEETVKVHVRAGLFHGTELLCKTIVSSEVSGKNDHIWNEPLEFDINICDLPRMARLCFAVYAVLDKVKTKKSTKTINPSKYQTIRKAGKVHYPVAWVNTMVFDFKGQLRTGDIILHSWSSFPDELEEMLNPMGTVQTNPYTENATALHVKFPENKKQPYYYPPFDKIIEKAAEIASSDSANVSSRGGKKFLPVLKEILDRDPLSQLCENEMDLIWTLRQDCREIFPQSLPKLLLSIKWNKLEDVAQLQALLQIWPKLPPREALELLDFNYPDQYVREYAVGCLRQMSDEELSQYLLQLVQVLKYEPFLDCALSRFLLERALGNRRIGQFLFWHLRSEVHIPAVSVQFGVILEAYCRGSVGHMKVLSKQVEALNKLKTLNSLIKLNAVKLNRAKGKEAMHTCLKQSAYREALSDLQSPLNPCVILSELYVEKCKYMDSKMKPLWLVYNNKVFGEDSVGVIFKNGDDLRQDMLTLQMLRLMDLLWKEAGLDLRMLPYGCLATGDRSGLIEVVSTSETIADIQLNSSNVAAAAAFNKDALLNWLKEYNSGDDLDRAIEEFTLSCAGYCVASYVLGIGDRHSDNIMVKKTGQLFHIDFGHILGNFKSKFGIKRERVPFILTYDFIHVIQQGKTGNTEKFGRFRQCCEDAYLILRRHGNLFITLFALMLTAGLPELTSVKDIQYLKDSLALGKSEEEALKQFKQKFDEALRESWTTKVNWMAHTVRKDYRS
Sequence (Q63787 whole entry partner): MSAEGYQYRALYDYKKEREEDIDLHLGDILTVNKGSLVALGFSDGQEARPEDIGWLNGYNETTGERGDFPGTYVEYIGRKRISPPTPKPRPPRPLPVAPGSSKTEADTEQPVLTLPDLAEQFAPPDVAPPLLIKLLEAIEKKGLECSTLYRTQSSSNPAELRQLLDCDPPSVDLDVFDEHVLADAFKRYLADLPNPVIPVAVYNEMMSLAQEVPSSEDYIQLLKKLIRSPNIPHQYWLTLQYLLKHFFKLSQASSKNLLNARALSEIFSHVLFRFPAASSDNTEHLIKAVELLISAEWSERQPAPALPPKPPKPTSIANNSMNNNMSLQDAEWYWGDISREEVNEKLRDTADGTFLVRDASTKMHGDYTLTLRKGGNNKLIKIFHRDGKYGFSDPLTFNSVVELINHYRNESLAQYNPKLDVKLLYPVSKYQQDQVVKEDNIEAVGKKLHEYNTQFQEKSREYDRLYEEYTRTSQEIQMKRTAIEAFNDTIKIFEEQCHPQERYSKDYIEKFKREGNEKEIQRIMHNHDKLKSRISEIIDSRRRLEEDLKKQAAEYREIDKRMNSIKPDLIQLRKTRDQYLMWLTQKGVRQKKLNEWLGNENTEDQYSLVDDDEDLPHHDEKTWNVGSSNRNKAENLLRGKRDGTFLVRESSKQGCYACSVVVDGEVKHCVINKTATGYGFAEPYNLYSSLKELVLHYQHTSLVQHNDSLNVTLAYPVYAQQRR
pIC50: −log10 of the molar value. Structures can show the parent of a compound that is named as a salt.
For each of the compounds below, state its pIC50.

See these solved cases before continuing.
[[record]]
compound = "Cc1cc(-c2nc(-c3cc(S(=O)(=O)NCC4(O)COC4)ccc3C)cnc2N)ccn1"
result_type = "pIC50"
result = "< 5.00"

[[record]]
compound = "COc1ncccc1-c1nc(-c2cc(S(=O)(=O)NCCC(C)(C)O)ccc2C)cnc1N"
result_type = "pIC50"
result = "< 5.00"


Turning now to a further record.
Input line: Return value of pIC50 for input Cc1ccc(S(=O)(=O)NCC(C)(C)O)cc1-c1cnc(N)c(-n2cnc(CN(C)C)n2)n1 [Example 117, hydrochloride salt] , no commentary.
Output line: < 5.52
